- Tested on: SK-MEL-28 melanoma
- test method notes: NCI tumour cell line growth inhibition, 48 h
quantity: TGI

> print(dat)
                                    molecule        assay.target    result
 1  CCOc1nc(-c2ccccc2)cc2c(O)c(C(=O)N/N=C/c3ccc(O)cc3O)[nH]c(=O)c12  SK-MEL-28 melanoma  > 100 µM
 2  FC(F)(F)c1nnn[n-]1.[Au+].c1ccc([PH+](c2ccccc2)c2ccccc2)cc1  SK-MEL-28 melanoma   7.35 µM
 3  CN1CCN([C@H]2C[C@H]3[C@@H]4CC=C5C[C@@H](N6CCCC6)CC[C@]5(C)[C@H]4CC[C@]3(C)[C@H]2O)CC1  SK-MEL-28 melanoma   55.8 µM
 4  ClCc1ccc(-c2ccc(Cn3cnc4nc(Cl)nc(Cl)c43)cc2)cc1  SK-MEL-28 melanoma   5.16 µM
 5  CN(C)CCCNC(=O)N/N=C/c1ccc([N+](=O)[O-])cc1  SK-MEL-28 melanoma  > 100 µM
 6  OC1(c2ccccc2)c2ccccc2NC2=NCCN21 (stereo not given)  SK-MEL-28 melanoma  > 100 µM
 7  O=C(O)c1cccc2cccc(-c3c4ccc(=O)cc-4oc4cc(O)ccc34)c12  SK-MEL-28 melanoma  > 100 µM
 8  CC(=O)[CH-]C(C)=O.CC(=O)[CH-]C(C)=O.CC(=O)[CH-]C(C)=O.[In+3]  SK-MEL-28 melanoma  > 100 µM
 9  Nc1nc(SCCC/C=C/B(O)O)nc2c1ncn2C1OC(COP(=O)(O)O)C(O)C1O (stereo not given)  SK-MEL-28 melanoma  > 203 µM
10       CCOC(=O)c1sc2nc(SC)nc3c2c1NCN3C1CC1  SK-MEL-28 melanoma  > 100 µM
11        N#CC1CNC(N)NC1N (stereo not given)  SK-MEL-28 melanoma  > 100 µM
12              [N-]=[N+]=Nc1ccccc1Oc1ccccc1  SK-MEL-28 melanoma  > 100 µM
13  CC(=O)NCCc1c(-c2[nH]c3ccccc3c2CCNC(C)=O)[nH]c2ccccc12  SK-MEL-28 melanoma  > 100 µM
14  CN(Cc1cnc2c(n1)C(N)=NN(N)N2)c1ccc(C(=O)NC(CCP(=O)(O)O)C(=O)O)cc1 (stereo not given)  SK-MEL-28 melanoma  > 100 µM
15  O=C(c1cc(Cl)ccc1Cl)N1CCN(c2cccc(Cl)c2)CC1  SK-MEL-28 melanoma   81.9 µM
16           COc1cc(NCCCCCN=C(N)N)c2ncccc2c1  SK-MEL-28 melanoma   38.6 µM
17          COc1ccc(C(N)=O)c(OC)c1OCc1ccccc1  SK-MEL-28 melanoma  > 100 µM
18  Cc1cc(O)c(C=O)c2c1C(=O)Oc1c(CO)c(O)c3c(c1O2)C(O)OC3=O (stereo not given)  SK-MEL-28 melanoma  > 100 µM
19     O=C1c2ccccc2-c2nnc(-c3ccc(Br)cc3)cc21  SK-MEL-28 melanoma  > 100 µM
20           COc1cc(C=O)cc(/C=N/c2ccccn2)c1O  SK-MEL-28 melanoma   21.9 µM
21            CC1=NCCc2cc3[nH]c4ccccc4c3cc21  SK-MEL-28 melanoma   24.6 µM
22  Nc1ccc(C(c2ccccc2)(c2ccccc2)c2ccccc2)cc1  SK-MEL-28 melanoma   56.1 µM
23         O=C(Cn1ccnc1[N+](=O)[O-])c1ccccc1  SK-MEL-28 melanoma  > 100 µM
24  C=C1OC(=O)[C@]2([C@@H](/C=C/C)C=CC(=O)[C@H]2O)[C@@H]1O  SK-MEL-28 melanoma  > 100 µM
25  Cc1ccc([N+](=O)[O-])cc1S(=O)(=O)Nc1ccc(C(=O)/C=C/c2cccs2)cc1  SK-MEL-28 melanoma   58.7 µM
